Test system: murine peritoneal macrophages; tumor targets Daudi and CEM-CM3
Assay: "In vitro-ex vivo" effect on the cytotoxic activity of peritoneal macrophages (lysis of 3H-TdR labelled tumor cells)
Set-up: species or system mouse (B6 D2 F1, C57B16); tumor targets human
Conditions: 48 hours, E/T 20:1, 25 mg/kg/day i.p., repeated experiment, B6 D2 F1
Would you mind telling me the reported % lysis of tumor target of each entry?
Enter your answer as a number in %; do not include the unit.

Q) Fill blank: measured % lysis of tumor target of the compound COc1cc2c(cc1OC)CC(N(CC1CC1)CC1CC1)CC2 (stereo not shown) [ST 557] is ____.
A) 7.8

Q) Fill blank: measured % lysis of tumor target of the compound CCN(CC(O)c1ccccc1)C1CCc2cc(OC)c(OC)cc2C1 (stereo not shown) [ST 570] is ____.
A) 9.0

Q) Fill blank: measured % lysis of tumor target of the compound COc1cc2c(cc1OC)CC(NCC(O)c1ccc(C)cc1)CC2 (stereo not shown) [ST 563] is ____.
A) 7.7

Q) Fill blank: measured % lysis of tumor target of the compound COc1cc2c(cc1F)CCC(N)C2 (stereo not shown) [ST 626, 2-amino-6-fluoro-7-methoxytetraline] is ____.
A) 8.0

* * *

Test: Tolerability after oral or intravenous administration
Set-up: species or system mouse (Swiss albino)
Conditions: mouse, in vivo, po; os, fasting 18 hours, 7 days observation; read-out: Tolerability, dose
Would you mind telling me the reported MTD at 168 h of each entry?

Q) Fill blank: measured MTD at 168 h of the compound COc1cc2c(cc1OC)CC(NCC(O)c1ccc(C)cc1)CC2 (stereo not shown) is ____.
A) > 50 mg/kg

Q) Fill blank: measured MTD at 168 h of the compound COc1ccc(OCC(O)CNC2CCc3cc(OC)c(OC)cc3C2)cc1 (stereo not shown) is ____.
A) > 50 mg/kg

Q) Fill blank: measured MTD at 168 h of the compound CCN(CC(O)c1ccccc1)C1CCc2cc(OC)c(OC)cc2C1 (stereo not shown) is ____.
A) > 50 mg/kg

Q) Fill blank: measured MTD at 168 h of the compound COc1cc2c(cc1OC)CC(N(CC1CC1)CC1CC1)CC2 (stereo not shown) is ____.
A) > 20 mg/kg

* * *

System: murine peritoneal macrophages; tumor targets Daudi and CEM-CM3
Experiment: "In vitro-ex vivo" effect on the cytotoxic activity of peritoneal macrophages (lysis of 3H-TdR labelled tumor cells)
Design: species or system mouse (B6 D2 F1, C57B16); tumor targets human
Settings: 72 hours, E/T 40:1, 25 mg/kg/day i.p., B6 D2 F1
Property Label: % lysis of tumor target (%)
Enter your answer as a number in %; do not include the unit.

Q) Fill blank: measured % lysis of tumor target of the compound COc1cc2c(cc1OC)CC(N(CC1CC1)CC1CC1)CC2 (stereo not shown) [ST 557] is ____.
A) 29.3

Q) Fill blank: measured % lysis of tumor target of the compound CCN(CC(O)c1ccccc1)C1CCc2cc(OC)c(OC)cc2C1 (stereo not shown) [ST 570] is ____.
A) 45.4

Q) Fill blank: measured % lysis of tumor target of the compound COc1cc2c(cc1F)CCC(N)C2 (stereo not shown) [ST 626, 2-amino-6-fluoro-7-methoxytetraline] is ____.
A) 17.6

Q) Fill blank: measured % lysis of tumor target of the compound COc1cc2c(cc1OC)CC(NCC(O)c1ccc(C)cc1)CC2 (stereo not shown) [ST 563] is ____.
A) 18.3
